Below: a set of entries, each annotated with reported growth inhibition.
Assay: NCI Yeast Anticancer Drug Screen. Data for the sgs1 mgt1 strain (AID 161);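 further: 0% = growth of cultures given vehicle only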
Settings: S. cerevisiae sgs1 mgt1 strain, at 50.0 µM, active compounds read high
The panel holds about 79,000 compounds, 15% with a hit somewhere; the sample as a whole holds those more often.
Measured quantity: growth inhibition (%)

                                    compound  measured_quantity  unit_name  obs_value
 0  COc1ccc(-c2cc(-c3ccc(OC)cc3OC)[n+](C)c(-c3ccc(OC)cc3OC)c2)cc1  growth inhibition          %       86.2
 1           COc1ccc2c(Cc3ccc(O)cc3)cncc2c1O  growth inhibition          %      -7.15
 2  OC(CBr)c1c(Br)ccc2ccccc12 (centres undefined)  growth inhibition          %         48
 3             N#COc1ccc(Oc2ccc(OC#N)cc2)cc1  growth inhibition          %       90.2
 4  c1ccc2c(c1)CC1c3[nH]c4ccccc4c3CCN21 (centres undefined)  growth inhibition          %       82.8
 5                   CCc1nc2c(O)ccc(O)c2nc1C  growth inhibition          %         65
 6  c1ccc(C2=NCCC(c3ccccc3)S2)cc1 (centres undefined)  growth inhibition          %       55.5
 7      CCOc1ccc2c(c1)n([O-])c1ccccc1[n+]2=O  growth inhibition          %       99.2
 8  O/N=C1/C(=C/c2ccc(Cl)c(Cl)c2)CCCC1C(NO)c1ccc(Cl)c(Cl)c1 (centres undefined)  growth inhibition          %       25.2
 9  Nc1c(-c2ccc(C3=NCCN3)cc2)[nH]c2cc(C3=NCCN3)ccc12  growth inhibition          %       69.9
10          CCCC(=O)Oc1ccc(-c2ccc(Br)cc2)cc1  growth inhibition          %       88.8
11               Cc1ccc(NN(C)c2ccc(C)cc2)cc1  growth inhibition          %      -11.4
12  Cn1c(CCC2(C)Cc3ccccc3C(=O)O2)cc2ccccc2c1=O (centres undefined)  growth inhibition          %       73.9
13  CC(O)C(NC(=O)OCc1ccccc1)C(=O)OC(c1ccccc1)c1ccccc1 (centres undefined)  growth inhibition          %       97.5
14  C=C1C(=O)OC(C)(C)C1c1ccc(Cl)c(Cl)c1 (centres undefined)  growth inhibition          %       99.8
15  O=C(O)c1c(Cl)c(Cl)c(Cl)c(Cl)c1-c1c2ccc(=O)cc-2oc2cc(O)ccc12  growth inhibition          %       90.5
16      O=C(O)Cc1ccc2c(c1O)C(=O)c1ccccc1C2=O  growth inhibition          %       78.8
17  CC(C)CC(CC(C)C)NCC(C)OC(=O)C(c1ccccc1)c1ccccc1 (centres undefined)  growth inhibition          %       84.8
18                   O=CCCCc1cc2c(cc1Br)CCC2  growth inhibition          %       64.2

====

Below: a set of entries, each annotated with reported growth inhibition.
Assay: NCI Yeast Anticancer Drug Screen. Data for the cln2 rad14 strain (AID 165);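 further: 0% = growth equal to vehicle treated cultures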
Settings: S. cerevisiae cln2 rad14 strain, at 50.0 µM, active compounds read high
Procedure: Growth inhibition of yeast strains with defined genetic alterations is measured as a screen for potential anti-cancer activity. Selected strains with alterations in DNA damage repair or cell cycle control were exposed to compounds and growth inhibition was measured relative to vehicle treated controls. The strain used in this assay is cln2 rad14
This is part of a sample that, as a whole, favours compounds with a hit. Of some 79,000 tested, about 15% had one in any assay.
Measured quantity: growth inhibition (%)

                  compound_structure_string  unit_name  obs_value
0                 CC(C)OC(=S)SSSC(=S)OC(C)C          %       68.2
1   O=C1OC(=O)c2cc([N+](=O)[O-])cc3cccc1c23          %       36.6
2  Cc1ccc(C)c(N(c2ccccc2[N+](=O)[O-])S(C)(=O)=O)c1          %       99.3
3  COc1ccc(Oc2ccc(C(=O)C(CN(C)C)CN(C)C)cc2)cc1          %       87.8

====

Test: NCI Yeast Anticancer Drug Screen. Data for the sgs1 mgt1 strain (AID 161);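 further: 0% = growth of cultures given vehicle only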
Details: S. cerevisiae sgs1 mgt1 strain, at 50.0 µM (retest, dose inferred, filed as 5.0), active compounds read high
Compounds without any hit were thinned out: in the full panel of roughly 79,000, 15% have a hit.
Parameter threshold = 80%. Response is 1.0 when growth inhibition meets or exceeds it, else 0.0.

>>> df
                                    compound  group_label
 0           N#CN=[N+]([O-])c1ccc(C(=O)O)cc1          1.0
 1  CCN(CC)CCOc1ccc(-c2cc(-c3ccccc3)nc(N)n2)cc1          1.0
 2  COc1ccc(/C=C2/C(=O)NC3SC=C(c4cccc([N+](=O)[O-])c4)N23)cc1 (centres undefined)          0.0
 3  Cc1ccc(O)c(C(C)c2ccccc2)c1 (centres undefined)          1.0
 4  O=NN(CCCl)C(=O)Oc1ccc(OC(=O)N(CCCl)N=O)cc1          1.0
 5      CCO/C=C1N=C(/C=C/c2ccc(Cl)cc2)OC/1=O          0.0
 6          O=C(O)c1ccc2c(O)c3ccccc3c(O)c2c1          0.0
 7  CN1CCC(/C=C/c2cccc3ccccc23)CN1 (centres undefined) (tested in a mixture with another compound)          1.0
 8  CCn1nc(-c2ccccc2)c2c1N(C)c1ccccc1-n1c(-c3ccccc3)nnc1-2          0.0
 9  CCOC(=O)N1CCN(CCCCCCOc2c(Cl)cc(Cl)cc2Cl)CC1          1.0
10  Oc1cccc(-c2nc(-c3ccccc3)c(-c3ccccc3)[nH]2)c1          0.0
11  N#CC(NNC(=O)c1ccccc1O)c1c(O)ccc2ccccc12 (centres undefined)          0.0
12  O=C1C(Br)=C(Sc2ccc([N+](=O)[O-])cc2)C(=O)c2ccccc21          1.0

====

Assay: NCI Yeast Anticancer Drug Screen. Data for the mec2-1 strain (AID 157)
Conditions: S. cerevisiae mec2-1 strain, at 50.0 µM
Compounds without any hit were thinned out: in the full panel of roughly 79,000, 15% have a hit. Activity calls are given as the source filed them. No stated cut-off is given here; in the data, active means growth inhibition above about 70%; inactive means the rest.
Classes used: active, inactive

>>> df
                                    compound  group_label
 0  COC(=O)c1nc(=S)[nH]c(C(=O)OC)c1C(=O)C(C)(C)C     inactive
 1            O=C(O)C1C(c2ccccc2)=C1c1ccccc1     inactive
 2  CCN(CC)CCCNc1ccc([N+](=O)[O-])c2nc3ccc(OC)cc3c(N)c12     inactive
 3  Cc1cc2c(C(C)C)c(O)c(O)c3coc(/c1=c1/c(C)cc4c(C(C)C)c(=O)c(=O)c5coc1c45)c32       active
 4  CCCCCCCCCCC[N+]1(Cc2ccccc2)CC2CCN(Cc3ccccc3)CC2C1 (centres undefined)       active
 5  CCC(c1ccc(Cl)cc1)C(C#N)c1ccc(Cl)cc1 (centres undefined)     inactive
 6  CN(NC(=O)/C(=C/c1ccc2c(c1)OCO2)NC(=O)c1ccccc1)c1ccnc2cc(Cl)ccc12     inactive
 7  Cn1c(CCC2(C)Cc3ccccc3C(=O)O2)cc2ccccc2c1=O (centres undefined)     inactive
 8  COc1ccc(CN2CCCN(Cc3ccc(OC)cc3OC)C2c2cc(Cl)cc(Cl)c2O)c(OC)c1     inactive
 9  C/C(=N\NC(=S)N1CCN(c2cnccn2)CC1)c1ccccn1       active
10  CCN(CC)CCOC(=O)c1ccc(N=Nc2ccc(O)c3ccccc23)cc1       active
11     O=C(CSCc1c(F)cccc1Cl)Nc1ccc(F)c(Cl)c1       active
12  COc1ccc(C(c2c(O)c3ccccc3oc2=O)N2CCOCC2)cc1 (centres undefined)     inactive
13  CCCCCCCn1ccnc1NCCCCCCCCCCNc1nccn1CCCCCCC       active
14                   ONC(=Nc1ccccc1)c1ccccc1       active
15                    N#CC(Br)(C#N)Cc1ccccc1       active
16                O=C1C=C(Cl)C(=O)C(Cl)=C1Cl       active
17     O=NNc1ccc(-c2ccc([N+](=O)[O-])cc2)cn1     inactive
18  O=C(Oc1c([N+](=O)[O-])cc(-c2ccc([N+](=O)[O-])cc2)cc1[N+](=O)[O-])c1ccccc1       active

FYI, the data here is from PubChem BioAssay (NCI).
